B1: mRNA-splicing (parent)
chain: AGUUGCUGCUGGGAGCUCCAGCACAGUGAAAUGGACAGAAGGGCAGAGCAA

Variants of: B1
Assay: exon inclusion enrichment index; higher = more inclusion; WT1 exon 5 minigene, HEK293
// not satisfied strictly below 0.2 in exon inclusion enrichment index; satisfied otherwise

For this variant, is measured exon inclusion enrichment index 0.2 or higher? C6A U7A C9A U10A A47U G48C satisfied

All values here come from the RNAGym collection of RNA variant scans (doi:10.1101/gr.219683.116).
